Origin of values: patent US8183238B2

Parameter pIC50: see the listing below.
target: UniProt:Q8N5Z0; test: KAT II Inhibition Spectra Assay; format: biochemical; settings: Table 5; hKAT II, decrease in OD370, 37° C., 15-20 h; read-out: KATII IC50
Sequence (Q8N5Z0 30-425): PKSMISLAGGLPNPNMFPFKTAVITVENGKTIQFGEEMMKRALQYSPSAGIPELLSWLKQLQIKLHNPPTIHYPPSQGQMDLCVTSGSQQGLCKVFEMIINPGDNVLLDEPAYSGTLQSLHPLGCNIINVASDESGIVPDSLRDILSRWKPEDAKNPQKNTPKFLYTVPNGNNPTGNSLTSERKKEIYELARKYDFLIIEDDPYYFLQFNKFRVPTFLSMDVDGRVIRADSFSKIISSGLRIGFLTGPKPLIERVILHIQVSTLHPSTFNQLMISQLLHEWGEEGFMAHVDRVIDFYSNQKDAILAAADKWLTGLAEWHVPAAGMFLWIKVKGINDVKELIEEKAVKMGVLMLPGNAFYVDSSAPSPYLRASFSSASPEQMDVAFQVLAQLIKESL
pIC50: −log10 of the molar value. Counter-ions that a name gives are not always drawn.
property: pIC50

NC1Cc2ccc(-c3ccco3)cc2N(O)C1=O (centres unmarked) [Example 51, trifluoroacetate salt]    7.00
N[C@H]1Cc2ccccc2N(O)C1=O [Example 4]    7.43
NC1Cc2ccc(-c3cccc(F)c3F)cc2N(O)C1=O (centres unmarked) [Example 40, trifluoroacetate salt]    6.91
Cc1ccc2c(c1)CC(N)C(=O)N2O (centres unmarked) [Example 18]    6.86
Cc1cccc(-c2ccc3c(c2)N(O)C(=O)C(N)C3)c1C (centres unmarked) [Example 47, trifluoroacetate salt]    6.93
